// PIK3CG (human) pIC50 records
pIC50: −log10 of the molar value.

Please review the entries below; each comes with its answer.
> print(dat)
                                   molecule  value.reported
1  CC(C)(CCn1c(=O)[nH]c2ccccc21)NC(=O)Nc1nc2c(s1)-c1c(cnn1-c1ccccc1C(F)(F)F)C2          > 6.10
2  Cc1cc(-c2cccnc2)nn1CCNC(=O)Nc1nc2c(s1)-c1c(cnn1-c1ccccc1C(F)(F)F)C2          > 6.10
3  CCCn1cnc(CCNC(=O)Nc2nc3c(s2)-c2c(cnn2-c2ccccc2Br)C3)c1          > 6.10
4  CCCCNC(=O)Nc1nc2c(s1)-c1c(cnn1-c1ccccc1Cl)C2          > 6.10
5  CCNC(=O)Nc1nc2c(s1)-c1c(cnn1-c1ccccc1Br)C2          > 6.10
6  O=C(Nc1nc2c(s1)-c1c(cnn1-c1ccccc1Cl)C2)N1CCCCC1c1nc2ccccc2[nH]1 (centres undefined)          > 6.10
7  Cc1nn(C)cc1CNC(=O)Nc1nc2c(s1)-c1c(cnn1-c1ccccc1C(F)(F)F)C2          > 6.10
8  CCn1cnc(CCNC(=O)Nc2nc3c(s2)-c2c(cnn2-c2ccccc2Br)C3)c1          > 6.10

Here's the next entry for you.
// lookup pIC50 | system=PIK3CG (human) | key= Cn1cc(CNC(=O)Nc2nc3c(s2)-c2c(cnn2-c2ccccc2Cl)C3)cn1
> 6.10

meta.source: the Kinase Knowledgebase extract (Sharma et al. 2016)
